# System: Venular Endothelial cells (HUVEC) (4H system)
# experiment: BioMAP 4H system, Example 826
# Type: cell-based, human
# assay context: concentration tested 1 uM
readout label: % decrease in VEGFRII

[[record]]
molecule = "C/C=C/C(=O)SCCNC(=O)CCNC(=O)[C@@H]1OP(=O)(O)OCC1(C)C"
obs_value = "≥20%"

[[record]]
molecule = "CC(=O)CC(=O)SCCNC(=O)CCNC(=O)[C@@H]1OP(=O)(O)OCC1(C)C"
obs_value = "≥10%"

[[record]]
molecule = "COC(=O)CCC(=O)SCCNC(=O)CCNC(=O)[C@@H]1OC(C)(CC(=O)OC)OCC1(C)C (some centres unmarked)"
obs_value = "≥10%"

[[record]]
molecule = "COC(=O)CCC(=O)CC(=O)SCCNC(=O)CCNC(=O)[C@@H]1OP(=O)(O)OCC1(C)C"
obs_value = "≥10%"

[[record]]
molecule = "COC(=O)CCC(=O)SCCNC(=O)CCNC(=O)[C@@H]1OC(=O)OCC1(C)C"
obs_value = "≥10%"


* * *

# System: Peripheral blood mononuclear cells co-cultured with venular endothelial cells (HUVEC) (LPS system)
# experiment: BioMAP LPS system, Example 827
# Assay type: cell-based, human
# assay context: LPS system, 1 uM
readout label: % decrease in IL-8

[[record]]
molecule = "COC(=O)CCC(=O)SCCNC(=O)CCNC(=O)[C@@H]1OC(C)(CC(=O)OC)OCC1(C)C (stereo partly shown)"
obs_value = "≥20%"

[[record]]
molecule = "C/C=C/C(=O)SCCNC(=O)CCNC(=O)[C@@H]1OP(=O)(O)OCC1(C)C"
obs_value = "≥20%"

[[record]]
molecule = "COC(=O)CCC(=O)CC(=O)SCCNC(=O)CCNC(=O)[C@@H]1OP(=O)(O)OCC1(C)C"
obs_value = "≥10%"

[[record]]
molecule = "CC(=O)CC(=O)SCCNC(=O)CCNC(=O)[C@@H]1OP(=O)(O)OCC1(C)C"
obs_value = "≥20%"


* * *

# Test system: Peripheral blood mononuclear cells co-cultured with venular endothelial cells (HUVEC) (LPS system)
# experiment: BioMAP LPS system, Example 827
# Assay type: cell-based, human
# assay context: LPS system, 1 uM
readout label: % decrease in IL-1α

[[record]]
compound = "C/C=C/C(=O)SCCNC(=O)CCNC(=O)[C@@H]1OP(=O)(O)OCC1(C)C [Compound 36]"
obs_value = "≥10%"

[[record]]
compound = "CCOP1(=O)OCC(C)(C)[C@H](C(=O)NCCC(=O)NCCSC(=O)CCC(=O)O)O1 (stereo partly shown) [Compound 61]"
obs_value = "≥10%"

[[record]]
compound = "CC(=O)CC(=O)SCCNC(=O)CCNC(=O)[C@@H]1OP(=O)(O)OCC1(C)C [Compound 42]"
obs_value = "≥10%"

[[record]]
compound = "COC(=O)CCC(=O)SCCNC(=O)CCNC(=O)[C@@H]1OC(=O)OCC1(C)C [Compound 451]"
obs_value = "≥10%"


* * *

The reader will find reported activation at 10 µM values listed item by item below.
# Tested on: HepG2 cells
# experiment: Glucose uptake Glo Assay, Example 821
# Type: cell-based
# assay context: Homo sapiens, 20 min, 10 uM, read-out: % increase in Glucose Uptake
readout label: activation at 10 µM

[[record]]
compound = "COC(=O)CC1(C)OCC(C)(C)[C@H](C(=O)NCCC(=O)NCCS)O1 (stereo partly shown) [Compound 866]"
target_desc = "HepG2 cells"
obs_value = "≥ 30%"

[[record]]
compound = "CC(=O)CC(=O)SCCNC(=O)CCNC(=O)[C@@H]1OP(=O)(O)OCC1(C)C [Compound 42]"
target_desc = "HepG2 cells"
obs_value = "≥ 30%"

[[record]]
compound = "CC1(C)COP(=O)(O)O[C@H]1C(=O)NCCC(=O)NCCS [Compound 869]"
target_desc = "HepG2 cells"
obs_value = "≥ 10%"

[[record]]
compound = "COC(=O)CC1(C)OCC(C)(C)[C@H](C(=O)NCCC(=O)NCCSC(=O)CCC(=O)O)O1 (stereo partly shown) [Compound 609]"
target_desc = "HepG2 cells"
obs_value = "≥ 10%"

[[record]]
compound = "COC(=O)/C=C/C(=O)SCCNC(=O)CCNC(=O)[C@@H]1OC(C)(C)OCC1(C)C [Compound 858]"
target_desc = "HepG2 cells"
obs_value = "≥ 30%"

[[record]]
compound = "CC1(C)OCC(C)(C)[C@H](C(=O)NCCC(=O)NCCSC(=O)C(=O)O)O1 [Compound 868]"
target_desc = "HepG2 cells"
obs_value = "≥ 30%"

[[record]]
compound = "CC1(C)COP(=O)(OCc2ccccc2)O[C@H]1C(=O)NCCC(=O)NCCS (stereo partly shown) [Compound 862]"
target_desc = "HepG2 cells"
obs_value = "≥ 20%"

[[record]]
compound = "C/C=C/C(=O)CC(=O)SCCNC(=O)CCNC(=O)[C@@H]1OP(=O)(OCc2ccccc2)OCC1(C)C (stereo partly shown) [Compound 867]"
target_desc = "HepG2 cells"
obs_value = "≥ 20%"

[[record]]
compound = "COC(=O)C(=O)SCCNC(=O)CCNC(=O)[C@@H]1OC(C)(C)OCC1(C)C [Compound 856]"
target_desc = "HepG2 cells"
obs_value = "≥ 30%"

[[record]]
compound = "CC(=O)NCCCC(=O)SCCNC(=O)CCNC(=O)[C@@H]1OC(C)(C)OCC1(C)C [Compound 853]"
target_desc = "HepG2 cells"
obs_value = "≥ 30%"

[[record]]
compound = "CC1(C)OCC(C)(C)[C@H](C(=O)NCCC(=O)NCCSSCCNC(=O)CCNC(=O)[C@@H]2OC(C)(C)OCC2(C)C)O1 [Compound 870]"
target_desc = "HepG2 cells"
obs_value = "≥ 30%"

[[record]]
compound = "CC1(C)COP(=O)(O)O[C@H]1C(=O)NCCC(=O)NCCSC(=O)CC(=O)CCC(=O)O [Compound 3]"
target_desc = "HepG2 cells"
obs_value = "≥ 10%"

[[record]]
compound = "CCOP1(=O)OCC(C)(C)[C@H](C(=O)NCCC(=O)NCCS)O1 (stereo partly shown) [Compound 865]"
target_desc = "HepG2 cells"
obs_value = "≥ 20%"

